System: Staphylococcus aureus
Test: Antibacterial activity against Staphylococcus aureus clinical isolate incubated for 24 hrs by CLSI-based broth microdilution method
Format: functional
readoutName: MIC (µg/mL)
Kindly provide the numeric value in µg/mL only, without the unit symbol.

Value of measured MIC for the entry NC(=O)c1c(F)ccc(OCC2=NOC(c3ccc(Cl)cc3Cl)C2)c1F (centres undefined) : 16

The value of MIC measured for the compound CC(C)(C)c1ccc(C2=NOC(COc3ccc(F)c(C(N)=O)c3F)C2)cc1 (centres undefined) turned out to be 4

// recorded MIC for "NC(=O)c1c(F)ccc(OCc2nc3cc(Cl)cnc3s2)c1F" : 1

The measured MIC associated with CC(=O)NC[C@H]1CN(c2ccc(N3CCOCC3)c(F)c2)C(=O)O1 [LINEZOLID] reads 1

Form field MIC, entry CCCCc1ccc(C2=NOC(COc3ccc(F)c(C(N)=O)c3F)C2)cc1 (centres undefined) : 0.5

For "CCCCc1ccc(C2=NO[C@@H](COc3ccc(F)c(C(N)=O)c3F)C2)cc1" the compound record lists MIC as 2
